# Test system: DMS 114 small cell lung
# assayMethodText: NCI tumour cell line growth inhibition, 48 h
Would you mind telling me the reported TGI of each entry?

Request: Which TGI value is on record for Cc1ccc(NC(=O)CC2C(=O)Nc3ccccc3S2(=O)=O)c(C)c1 (configuration not stated) ?
Response: 39.2 µM

Request: Which TGI value is on record for COCOCC/C=C/C=O ?
Response: > 100 µM

Request: Which TGI value is on record for O=C1Nc2ccccc2N=CC1NC(=O)C(c1ccccc1)c1ccccc1 (configuration not stated) ?
Response: > 100 µM

Request: Which TGI value is on record for N#Cc1ccc(C=NC23CC4CC(CC(C4)C2)C3)cc1 ?
Response: > 100 µM

Request: Which TGI value is on record for O=C(c1nc2ccccc2[nH]c1=O)C(O)c1ccccc1 (configuration not stated) ?
Response: > 100 µM

Request: Which TGI value is on record for Cn1c(-c2ccccc2)cc(-c2cccs2)c1-c1cccs1 ?
Response: > 100 µM

Request: Which TGI value is on record for CC1(c2ccccc2Cl)C(C#N)C(=O)NC(=O)C1C#N (configuration not stated) ?
Response: > 100 µM

Request: Which TGI value is on record for O=C(CCC1C(=O)NC(=S)NC1=O)c1ccc2ccccc2c1 ?
Response: > 100 µM

Request: Which TGI value is on record for Cc1ccc(C)c(N2C(=O)C(=O)C(c3nc4ccccc4s3)/C(=N/NC(=O)NN)C2=O)c1 (configuration not stated) ?
Response: > 100 µM

Request: Which TGI value is on record for Nc1c([N+](=O)[O-])nc(Cl)c2nncn12 ?
Response: > 57.4 µM

Request: Which TGI value is on record for Cc1cc(C)nc(NS(=O)(=O)c2ccc(Nc3c4ccccc4nc4c(C(=O)Nc5ccc(S(=O)(=O)N=C(N)N)cc5)cccc34)cc2)n1 ?
Response: > 100 µM

Request: Which TGI value is on record for NC(=O)c1csc(C2OC(COP(=O)(O)CP(=O)(O)OCC3OC(n4cnc5c(N)ncnc54)C(O)C3O)C(O)C2O)n1 (configuration not stated) ?
Response: > 100 µM

###

Would you mind telling me the reported TGI of each entry?
# Tested on: MOLT-4 leukemia
# assayMethodText: NCI tumour cell line growth inhibition, 48 h
Answer format: numeric, µM implied, no suffix.

Request: Which TGI value is on record for Cc1cc(C)nc(NS(=O)(=O)c2ccc(NC(=O)c3cccc4c(Nc5ccc(S(=O)(=O)Nc6cc(C)on6)cc5)c5ccccc5nc34)cc2)n1 ?
Response: 86.4

Request: Which TGI value is on record for COC1C(O)C(CO)OC(OC2C(O)COC(OC3C(C)OC(OC4C(O[C@H]5CC[C@@]6(C)C(CC=C7[C@H]6CCC68C(=O)O[C@@](C)(CCCC(C)C)[C@H]6[C@@H](OC(C)=O)C[C@@]78C)C5(C)C)OCC(OS(=O)(=O)O)C4O)C(OC4OCC(O)C(O)C4O)C3O)C2O)C1O (stereo partly drawn) ?
Response: 0.368

Request: Which TGI value is on record for Cc1cccc2c3c(sc12)C(c1ccc(Cl)cc1)C(C#N)=C(N)O3 (stereo not drawn) ?
Response: 13.7

Request: Which TGI value is on record for Cc1cc(C#Cc2ccc(C(C)(C)C)cc2)ccc1-n1c(/C=C/c2ccc(O)cc2O)nc2ccccc2c1=O ?
Response: 10.2

###

# Test system: UO-31 renal
# assayMethodText: NCI tumour cell line growth inhibition, 48 h
outcomeMeasure: GI50

Request: Quick check: GI50 on UO-31 renal, item O=[N+]([O-])c1ccc(N2CCOCC2)c2c1no[n+]2[O-] ?
Response: 1420 nM

Request: Quick check: GI50 on UO-31 renal, item N#CC1=C(/N=C/c2ccccc2)Oc2c(ccc3ccccc23)C1c1ccccc1 (stereo not given) ?
Response: 452 nM

Request: Quick check: GI50 on UO-31 renal, item C(=N/N(Cc1ccccc1)Cc1ccccc1)/c1ccccc1 ?
Response: > 100000 nM

Request: Quick check: GI50 on UO-31 renal, item CCCCCCNC(=O)Oc1ccc(/C(=C(\C)c2ccc(Cl)cc2)c2ccc(OCCN3CCCCC3)cc2)cc1 ?
Response: 2140 nM

Request: Quick check: GI50 on UO-31 renal, item O=C(CCCCCCN1CC(=O)N2[C@@H](c3ccc(Cl)c(Cl)c3)c3[nH]c4ccccc4c3C[C@H]2C1=O)NO ?
Response: 3520 nM

###

# Test system: HCC-2998 colon
# assayMethodText: NCI tumour cell line growth inhibition, 48 h; in the data active = GI50 below about 0.43 µM; inactive = the rest
// allowed return values: 1 (yes) (active), 0 (no) (inactive)

Request: Hi, sorry to bother you, what did the test record for C/C(=N/N=C(\[O-])c1ccncc1)C(F)(F)F.C/C(=N\N=C(/[O-])c1ccncc1)C(F)(F)F.[Ni+2] ?
Response: 0 (no)

Request: Hi, sorry to bother you, what did the test record for Cc1cc(C#Cc2ccc(C(C)(C)C)cc2)ccc1-n1c(/C=C/c2ccc(O)cc2O)nc2ccccc2c1=O ?
Response: 0 (no)

Request: Hi, sorry to bother you, what did the test record for CC1OC(OC2C(O)CC(OC3C(O)CC(OC4CCC5(C)C(CCC6C5CC(O)C5(C)C(C7=CC(=O)OC7)CCC65O)C4)OC3C)OC2C)CC(O)C1O (centres undefined) ?
Response: 1 (yes)

Request: Hi, sorry to bother you, what did the test record for Cc1ccc(-c2nc([P+](c3ccccc3)(c3ccccc3)c3ccccc3)c(S(=O)(=O)c3ccc(C)cc3)o2)cc1 ?
Response: 0 (no)

###

Would you mind telling me the reported TGI of each entry?
# System: HT29 colon
# assayMethodText: NCI tumour cell line growth inhibition, 48 h

Request: Which TGI value is on record for CC(C)(C)C1=CC(C)(n2[nH]c(=O)n(-c3ccccc3)c2=O)C=C(C(C)(C)C)C1=O ?
Response: > 100 µM

Request: Which TGI value is on record for Cc1nc(C(=O)O)c2ccccc2n1 ?
Response: > 100 µM

Request: Which TGI value is on record for CC1=C(O)C2=C(C(=O)C1=O)[C@@H](C)CC[C@@H]2[C@@H](C)C/C=C/C(C)(C)O ?
Response: > 100 µM

Request: Which TGI value is on record for CC(C)(O)CNc1nc(Nc2ccnc(C(F)(F)F)c2)nc(-c2cccc(C(F)(F)F)n2)n1 ?
Response: 41.2 µM

Request: Which TGI value is on record for CC(C)=CCN1CC(C)C(=O)Nc2ccccc21 (stereo not given) ?
Response: > 100 µM

Request: Which TGI value is on record for Cc1cc(C)nc(NS(=O)(=O)c2ccc(NC(=O)c3cccc4c(Nc5ccc(S(=O)(=O)Nc6cc(C)on6)cc5)c5ccccc5nc34)cc2)n1 ?
Response: 46.7 µM

Request: Which TGI value is on record for c1cc2nnc1SCCCSc1ccc(nn1)SCCCS2 ?
Response: > 100 µM

Request: Which TGI value is on record for O=C(O)c1cccc(C(=O)O)c1S(=O)Cc1ccccc1 (stereo not given) ?
Response: > 100 µM

Request: Which TGI value is on record for C=C1CCC2[C@@H](CCC3[C@]2(C)CCC[C@]3(C)C(=O)OC)C1CC=O (stereo not given in full) ?
Response: 30.8 µM

Request: Which TGI value is on record for C[N+](C)(C)c1ncnc2c1ncn2C1CC(O)C(CO)O1 (stereo not given) ?
Response: > 100 µM

###

Would you mind telling me the reported TGI of each entry?
# System: UO-31 renal
# assayMethodText: NCI tumour cell line growth inhibition, 48 h
Answer format: numeric, µM implied, no suffix.

Request: Which TGI value is on record for COC1C(N)C(OC2C(Oc3cccc4c(O)c5c(=O)oc6ccc(C)c7c(=O)oc(c34)c5c67)OC(C)C(O)C2(C)O)OC(C)C1O (stereo not given) ?
Response: 0.82

Request: Which TGI value is on record for O=C1C(Cl)C2(CC(/C=C/c3ccccc3)=NN2c2cccc(S(=O)(=O)O)c2)N1c1nc2ccccc2s1 (stereo not given) ?
Response: 16.1

Request: Which TGI value is on record for CCc1cccc(C)c1NC(=O)c1sc2nc3c(cc2c1N)C(=O)CCC3 ?
Response: 99.8

Request: Which TGI value is on record for Oc1ccc2cc(Br)ccc2c1-c1c(O)ccc2ccc(Br)cc12 ?
Response: 28.8

Request: Which TGI value is on record for CCOC(=O)C(C(=O)OCC)=C1NC2(c3ccccc3Nc3ccccc32)C(C#N)S1 (stereo not given) ?
Response: 25.3

Request: Which TGI value is on record for O=C1CSC2(CC(/C=C/c3cccc([N+](=O)[O-])c3)=NN2c2cccc(S(=O)(=O)O)c2)N1c1nc2ccccc2s1 (stereo not given) ?
Response: 34.3

Request: Which TGI value is on record for N#CCCN1C/C(=C/c2ccc(Cl)cc2)C(=O)/C(=C/c2ccc(Cl)cc2)C1 ?
Response: 2.77

Request: Which TGI value is on record for COC(=O)C(CCSC)NC(=O)CNC(=O)CSc1nnc(COc2ccc(Cl)cc2)n1-c1ccccc1 (stereo not given) ?
Response: 22.1

Request: Which TGI value is on record for CCCCCCCCCCCCC(Br)C(=O)NCC(N)=O (stereo not given) ?
Response: 6.92
